ASSAY_DETAILS: Thermodynamic solubility test
Assay type: physicochemical
REPORTED_CONDITIONS: FaSSGF solution, fassgf or other biorelevant, thermodynamic from solid; FaSSGF, pH 1.6, thermodynamic; read-out: Dissolubility FaSSGF (pH 1.6)
Procedure: The compound was accurately weighed, and the prepared phosphate buffer (pH 7.4), FeSSIF solution (pH 5.8) and FaSSGF solution (pH 1.6) were added to prepare a solution with a concentration of 4 mg/mL, which was shaken at 1,000 rpm for 1 hour, and then incubated overnight at room temperature. […] The supernatant was diluted appropriately, then added with an acetonitrile solution containing the internal standard, and quantified using a standard curve prepared with the same matrix.
Please go through the items and note down their solubility.
One number for each entry, in µg/mL.

Could I get solubility for every one of these entries?
1. C[C@@H](Cc1cnn[nH]1)OCC(=O)N1Cc2cnc(NC3Cc4ccccc4C3)nc2C1
2. C[C@H](Cc1cnn[nH]1)OCC(=O)N1Cc2cnc(NC3Cc4ccccc4C3)nc2C1
3. C[C@@H](OCCc1c[nH]nn1)C(=O)N1Cc2cnc(NC3Cc4ccccc4C3)nc2C1

1. 1240
2. 1040
3. 88.5
